# TARGET OR SYSTEM: T1, cell surface human mesothelin (MSLN) (human, UniProt Q13421 296-598)
# T1 construct: whole, on cells; also called cell surface MSLN
# T1 sequence (Q13421 other isoform, or with tags, fused parts or gaps limits assumed): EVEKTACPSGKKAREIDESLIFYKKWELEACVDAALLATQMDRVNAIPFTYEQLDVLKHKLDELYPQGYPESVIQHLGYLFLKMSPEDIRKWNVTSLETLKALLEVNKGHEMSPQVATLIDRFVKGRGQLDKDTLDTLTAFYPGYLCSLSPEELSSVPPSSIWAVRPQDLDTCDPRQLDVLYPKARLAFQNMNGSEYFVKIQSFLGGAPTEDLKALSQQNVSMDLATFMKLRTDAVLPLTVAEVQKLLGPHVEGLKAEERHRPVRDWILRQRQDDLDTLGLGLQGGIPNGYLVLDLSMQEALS
# RUN DESCRIPTION: flow cytometry, NCI-H226 cells + 20 nM soluble MSLN
Listing of recorded Emax (MFI) by entry.
PROPERTY NAME: Emax (MFI)

BINDER	RESULT
FS22-053-008-AA/FS28-256-024 mAb^2 (bispecific antibody, human IgG1, kappa, L234A L235A, V domains shown) VH: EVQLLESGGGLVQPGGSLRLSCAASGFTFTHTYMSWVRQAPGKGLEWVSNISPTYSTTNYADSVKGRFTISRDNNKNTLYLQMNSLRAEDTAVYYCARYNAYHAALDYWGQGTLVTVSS VL: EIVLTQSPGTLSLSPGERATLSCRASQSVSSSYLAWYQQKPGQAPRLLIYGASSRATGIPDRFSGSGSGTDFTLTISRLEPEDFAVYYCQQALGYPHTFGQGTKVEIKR	669000 MFI
FS22-053-008-AA/FS28-256 (bispecific antibody, human IgG1, kappa, L234A L235A, V domains shown) VH: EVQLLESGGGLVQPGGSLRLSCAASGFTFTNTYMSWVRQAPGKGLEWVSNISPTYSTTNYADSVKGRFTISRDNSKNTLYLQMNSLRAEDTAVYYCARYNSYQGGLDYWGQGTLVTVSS VL: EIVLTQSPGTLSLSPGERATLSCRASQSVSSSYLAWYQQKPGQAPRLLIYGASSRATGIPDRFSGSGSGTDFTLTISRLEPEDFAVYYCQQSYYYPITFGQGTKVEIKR	351000 MFI
